System: CAKI-1 renal
EXPERIMENTAL PROTOCOL: NCI-60 one-dose screen, 48 h (100 = growth as untreated, 0 = no growth, -100 = all killed)
RUN CONDITIONS: 10 µM unless noted
About 83,000 compounds went through this panel and 20% of them were active in at least one assay; those are over-represented in the sample as a whole.
Output Yes for records whose growth is lower than 10%, No for records at or above 10%.

[[record]]
molecule = "CCCCCCCCCCCCCCCCCCSC1=CC(=O)C(OC)=C(OC)C1=O"
assay_target = "CAKI-1 renal"
answer_label = "No"

[[record]]
molecule = "CCOC(=O)/C=C/c1ccc(C(=O)OCC)[nH]1"
assay_target = "CAKI-1 renal"
answer_label = "No"

[[record]]
molecule = "C=C1CCC2C3(C)COC(c4cccc(Cl)c4)OC3CCC2(C)C1/C=C/C1=CCOC1=O (stereo not given)"
assay_target = "CAKI-1 renal"
answer_label = "No"

[[record]]
molecule = "O=C(N/N=C/c1ccc(O)cc1O)c1cccnc1"
assay_target = "CAKI-1 renal"
answer_label = "No"

[[record]]
molecule = "CSc1nc2sc3c(c2c(=O)n1-c1ccc(C(C)C)cc1)CCC(=O)C3"
assay_target = "CAKI-1 renal"
answer_label = "Yes"


###

Tested on: MCF7 breast
EXPERIMENTAL PROTOCOL: NCI-60 one-dose screen, 48 h (100 = growth as untreated, 0 = no growth, -100 = all killed)
RUN CONDITIONS: 10 µM unless noted
This is part of a sample that, as a whole, favours compounds with a hit. Of some 83,000 tested, about 20% had one in any assay.
Below, each of the compounds is paired with its reported growth value.
MEASURED PARAMETER: growth (%)

[[record]]
compound = "Cc1ccc(Nc2nc(N)nc(Nc3ccc4ccccc4c3)n2)cc1"
reported_measurement = 29.6

[[record]]
compound = "CCCCCCCCCCCCCCCCCCNC(=O)[C@H]1CSC(c2ccc(OC)c(F)c2)N1 (stereo partly drawn)"
reported_measurement = -67.9

[[record]]
compound = "O=C(CCCN1CCOCC1)Nc1ccc(Cn2nnc3c2C(=O)c2nnn(Cc4ccc(NC(=O)CCCN5CCOCC5)cc4)c2C3=O)cc1"
reported_measurement = -58.6

[[record]]
compound = "C=C1CCC2C3(C)COC(c4cccc(Cl)c4)OC3CCC2(C)C1/C=C/C1=CCOC1=O (stereo not drawn)"
reported_measurement = 42

[[record]]
compound = "CN(C)c1ccc(/C=C\\C2=[N+](C)c3ccccc3C2(C)C)cc1"
reported_measurement = 3.95

[[record]]
compound = "N#Cc1ccc(NC(=O)Nc2ccc(Cc3ccc(NC(=O)Nc4ccc(C#N)cc4)cc3)cc2)cc1"
reported_measurement = 6.82

[[record]]
compound = "S=c1[nH]nc(CSc2ncnc3c2c(-c2ccccc2)cn3-c2ccc(Cl)cc2)o1"
reported_measurement = 93.7

[[record]]
compound = "O=C(Nc1ccc(F)cc1)Nc1ccc(CCO)cc1"
reported_measurement = 109

[[record]]
compound = "CN1Cc2c(cc(CN3CCCCC3)n2C)C(c2ccc(Br)cc2)C1 (stereo not drawn)"
reported_measurement = 71.8

[[record]]
compound = "NC(N)=Nc1ccc(S(=O)(=O)O)cc1"
reported_measurement = 102

[[record]]
compound = "O=C(CCN1CCOCC1)Nc1ccc(Cn2nnc3c2C(=O)c2nnn(Cc4ccc(NC(=O)CCN5CCOCC5)cc4)c2C3=O)cc1"
reported_measurement = -56.3

[[record]]
compound = "Nc1ccc(Nc2nccc(-c3ccc4ccccc4c3)n2)cc1"
reported_measurement = 19

[[record]]
compound = "CC(=O)C1=C(O)C=C2Oc3c(C(=O)/C=C/c4cc(Cl)cc(Cl)c4)c(O)c(C)c(O)c3[C@]2(C)C1=O"
reported_measurement = -10.6

[[record]]
compound = "O=C(O)c1cn(C2CC2)c2cc(N3CCN(Cc4nc5c(cnn5-c5ccc([N+](=O)[O-])cc5)c(=O)[nH]4)CC3)c(F)cc2c1=O"
reported_measurement = 91.5

[[record]]
compound = "CCOC(=O)C(C#N)C1CCCCC1 (stereo not drawn)"
reported_measurement = 123

[[record]]
compound = "COc1ccc(-c2cnoc2-c2cc(OC)c3c(c2)OCCO3)cc1"
reported_measurement = 12.4

[[record]]
compound = "CC(C)C1=C[C@@]23CC[C@@H]4[C@](C)(CCC[C@@]4(C)C(=O)OCC#CCN4CCCC4)[C@H]2C[C@@H]1[C@H]1C(=O)OC(=O)[C@H]13"
reported_measurement = 84.7

[[record]]
compound = "CNc1cc2nc3cc(NC)c(C)cc3cc2cc1C"
reported_measurement = 3.03


###

Tested on: SF-268 CNS
EXPERIMENTAL PROTOCOL: NCI-60 one-dose screen, 48 h
RUN CONDITIONS: 10 µM unless noted
The panel holds about 83,000 compounds, 20% with a hit somewhere; the sample as a whole holds those more often. Activity calls are given as the source filed them. How the source made its calls: active means growth percent below 10; inactive means the rest.
Labels: T for active, F for inactive

[[record]]
entry_smiles = "COc1ccc(OCC(=O)Nc2ccc(-c3nc4ccccc4s3)cc2C)cc1"
answer_label = "F"

[[record]]
entry_smiles = "O=C(O)c1ccc2c(c1Sc1ccccc1)C(=O)c1ccccc1C2=O"
answer_label = "F"

[[record]]
entry_smiles = "Cc1ccc(-c2nc(/C=N/Nc3cc(C)nc4ccc(Cl)cc34)c(C)o2)cc1"
answer_label = "T"


###

Test system: HOP-92 NSCLC
EXPERIMENTAL PROTOCOL: NCI-60 one-dose screen, 48 h (100 = growth as untreated, 0 = no growth, -100 = all killed)
RUN CONDITIONS: 10 µM unless noted
About 83,000 compounds went through this panel and 20% of them were active in at least one assay; those are over-represented in the sample as a whole. The source made the active and inactive calls. How the source made its calls: active means growth percent below 10; inactive means the rest.
Below, each of the compounds is paired with its reported growth value.
MEASURED PARAMETER: growth

[[record]]
compound = "CN(C)c1ccc(/C=C(\\C#N)c2nc3ccccc3s2)cc1"
assay_target = "HOP-92 NSCLC"
measured_parameter = "growth"
reported_measurement = "104% (inactive)"

[[record]]
compound = "CC/C=C\\C[C@H](O)C/C=C1/C(=O)C=C[C@@H]1C/C=C\\CCCC(=O)OC(C)C"
assay_target = "HOP-92 NSCLC"
measured_parameter = "growth"
reported_measurement = "-0.165% (active)"

[[record]]
compound = "Oc1cccc(Nc2nccc(-c3ccc4ccccc4c3)n2)c1"
assay_target = "HOP-92 NSCLC"
measured_parameter = "growth"
reported_measurement = "63.5% (inactive)"

[[record]]
compound = "C=C1CC[C@@H]2[C@](C)(COC(C)=O)[C@H](OC(C)=O)CC[C@@]2(C)[C@@H]1CC(Nc1ccc(S(=O)(=O)Nc2nc(C)cc(C)n2)cc1)C1=CCOC1=O (stereo partly specified)"
assay_target = "HOP-92 NSCLC"
measured_parameter = "growth"
reported_measurement = "90.1% (inactive)"

[[record]]
compound = "CC1=NNC(=O)C1C (stereo unspecified)"
assay_target = "HOP-92 NSCLC"
measured_parameter = "growth"
reported_measurement = "102% (inactive)"

[[record]]
compound = "CCCNc1nc(SC)nc(-c2cccc(N)c2)c1C#N"
assay_target = "HOP-92 NSCLC"
measured_parameter = "growth"
reported_measurement = "80.5% (inactive)"

[[record]]
compound = "COc1ccc(-c2cc(/C=C3\\C(=O)Nc4ccc(Cl)cc43)[nH]n2)cc1"
assay_target = "HOP-92 NSCLC"
measured_parameter = "growth"
reported_measurement = "80.7% (inactive)"

[[record]]
compound = "CCN(CC)CC(O)c1cc(-c2ccc(Cl)cc2)nc2c(C)c(Cl)ccc12 (stereo unspecified)"
assay_target = "HOP-92 NSCLC"
measured_parameter = "growth"
reported_measurement = "-46.8% (active)"

[[record]]
compound = "C=C1CCC2C3(C)COC(c4ccc(OC)cc4Br)OC3CCC2(C)C1/C=C/C1=CCOC1=O (stereo unspecified)"
assay_target = "HOP-92 NSCLC"
measured_parameter = "growth"
reported_measurement = "84.8% (inactive)"

[[record]]
compound = "CCOC(=O)C12CCCC1=CC(=O)CC2 (stereo unspecified)"
assay_target = "HOP-92 NSCLC"
measured_parameter = "growth"
reported_measurement = "107% (inactive)"

[[record]]
compound = "NC1=CC(=O)C(=O)c2ccccc21"
assay_target = "HOP-92 NSCLC"
measured_parameter = "growth"
reported_measurement = "106% (inactive)"

[[record]]
compound = "O=C(Nc1ccc(Oc2ccc(F)cc2)c(Cl)c1)c1cccnc1"
assay_target = "HOP-92 NSCLC"
measured_parameter = "growth"
reported_measurement = "91.9% (inactive)"

[[record]]
compound = "O=C(COc1cccc(/C=C2/Oc3ccccc3C2=O)c1)Nc1nccs1"
assay_target = "HOP-92 NSCLC"
measured_parameter = "growth"
reported_measurement = "-51.4% (active)"

[[record]]
compound = "COc1cnc2c(c1)C(=O)c1c-2n(CCCN2CCN(C)CC2)c(=O)c2cc([N+](=O)[O-])ccc12"
assay_target = "HOP-92 NSCLC"
measured_parameter = "growth"
reported_measurement = "-57.7% (active)"

[[record]]
compound = "C=C1CCC2C3(C)COC(c4ccccc4Br)OC3CCC2(C)C1C/C=C1/C(=O)OCC1OC(C)=O (stereo unspecified)"
assay_target = "HOP-92 NSCLC"
measured_parameter = "growth"
reported_measurement = "1.59% (active)"

[[record]]
compound = "Cc1cc(N/N=C/c2nc(-c3ccc(Cl)cc3)oc2C)c2cc(Br)ccc2n1"
assay_target = "HOP-92 NSCLC"
measured_parameter = "growth"
reported_measurement = "69.6% (inactive)"

[[record]]
compound = "NC(=S)N/N=C/c1ccc(OCc2ccccc2)cc1"
assay_target = "HOP-92 NSCLC"
measured_parameter = "growth"
reported_measurement = "48.5% (inactive)"

[[record]]
compound = "C/C(=C(/c1ccc(O)cc1)c1ccc(Cl)cc1)c1ccccc1"
assay_target = "HOP-92 NSCLC"
measured_parameter = "growth"
reported_measurement = "-96% (active)"

[[record]]
compound = "CCCC(=O)Oc1ccc(/C(=C(/CC)Cc2ccccc2)c2ccc(OCCN3CCCC3)cc2)cc1"
assay_target = "HOP-92 NSCLC"
measured_parameter = "growth"
reported_measurement = "79.1% (inactive)"

[[record]]
compound = "CCCCCCCCCc1cc(CN2CCCCC2)c(O)c(CN2CCCCC2)c1"
assay_target = "HOP-92 NSCLC"
measured_parameter = "growth"
reported_measurement = "12.7% (inactive)"

[[record]]
compound = "O=c1c(/C=C/c2ccco2)nnc(SCCN2CCOCC2)n1/N=C/c1ccc([N+](=O)[O-])cc1"
assay_target = "HOP-92 NSCLC"
measured_parameter = "growth"
reported_measurement = "90.5% (inactive)"

[[record]]
compound = "Brc1cccc(-c2cc(-c3ccc4c(c3)OCCO4)[nH]n2)c1"
assay_target = "HOP-92 NSCLC"
measured_parameter = "growth"
reported_measurement = "62.8% [25 µM] (inactive)"

[[record]]
compound = "O=C(/C=C/c1ccc(B(O)O)cc1)/C=C/c1ccc(B(O)O)cc1"
assay_target = "HOP-92 NSCLC"
measured_parameter = "growth"
reported_measurement = "82.6% (inactive)"

[[record]]
compound = "O=C1Nc2ccccc2C12CC(c1ccc(Cl)cc1)=NN2 (stereo unspecified)"
assay_target = "HOP-92 NSCLC"
measured_parameter = "growth"
reported_measurement = "74.3% (inactive)"

[[record]]
compound = "ClC1=C2NC=NC2n2c(nnc2-c2ccc(Cl)cc2)N1 (stereo unspecified)"
assay_target = "HOP-92 NSCLC"
measured_parameter = "growth"
reported_measurement = "109% (inactive)"

[[record]]
compound = "CCOC(=O)Cc1cnn(C)c1NC(=O)c1ccc(Cl)cc1NC(C)=O"
assay_target = "HOP-92 NSCLC"
measured_parameter = "growth"
reported_measurement = "91.4% (inactive)"

[[record]]
compound = "CN(C)CCOc1ccc(-c2nc3ccc(-c4nc5ccc(N6CCN(C)CC6)cc5[nH]4)cc3[nH]2)cc1"
assay_target = "HOP-92 NSCLC"
measured_parameter = "growth"
reported_measurement = "61.7% (inactive)"

[[record]]
compound = "C/C(Cc1ccc(Cl)cc1)=C(\\c1ccc(OCCN2CCCCCC2)cc1)c1ccc(OC(=O)C2CCCCC2)cc1"
assay_target = "HOP-92 NSCLC"
measured_parameter = "growth"
reported_measurement = "29.1% (inactive)"

[[record]]
compound = "CCCCCCNC(=O)Oc1ccc(/C(=C(\\C)c2ccccc2)c2ccc(OCCN(CC)CC)cc2)cc1"
assay_target = "HOP-92 NSCLC"
measured_parameter = "growth"
reported_measurement = "39.1% (inactive)"

[[record]]
compound = "O=C([C@@H](COCc1ccccc1)N1C(=O)[C@@H](N2C(=O)OC[C@@H]2c2ccccc2)[C@H]1/C=C/c1ccccc1)N1CCC(CCN2CCCCC2)CC1"
assay_target = "HOP-92 NSCLC"
measured_parameter = "growth"
reported_measurement = "76.1% (inactive)"

[[record]]
compound = "CN1CCN(c2ccc3nc(-c4ccc5nc(-c6ccc(OCCC(C)(C)C)cc6)[nH]c5c4)[nH]c3c2)CC1"
assay_target = "HOP-92 NSCLC"
measured_parameter = "growth"
reported_measurement = "69.6% (inactive)"

